# System: jojoba acyl-CoA reductase (Simmondsia chinensis, UniProt Q9XGY7, S459G)
# Sequence (Q9XGY7 whole entry S459G): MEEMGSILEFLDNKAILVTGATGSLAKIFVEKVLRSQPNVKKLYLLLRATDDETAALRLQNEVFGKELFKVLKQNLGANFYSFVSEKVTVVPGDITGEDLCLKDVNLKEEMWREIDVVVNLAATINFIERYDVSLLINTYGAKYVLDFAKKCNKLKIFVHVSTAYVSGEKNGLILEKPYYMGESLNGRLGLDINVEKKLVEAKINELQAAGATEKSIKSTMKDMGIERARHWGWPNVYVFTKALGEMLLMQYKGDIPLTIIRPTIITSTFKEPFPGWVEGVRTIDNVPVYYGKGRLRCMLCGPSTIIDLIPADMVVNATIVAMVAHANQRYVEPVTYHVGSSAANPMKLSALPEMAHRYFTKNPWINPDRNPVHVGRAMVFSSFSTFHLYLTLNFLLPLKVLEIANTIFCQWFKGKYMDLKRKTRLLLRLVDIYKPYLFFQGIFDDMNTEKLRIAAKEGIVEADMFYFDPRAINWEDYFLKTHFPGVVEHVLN
# Assay text: biochemical
# Condition notes: CoA and NADP+ at millimolar concentrations
Readout name: effect of end-products and cofactors on reductase activity (in words)

1. NC(=O)c1ccc[n+]([C@@H]2O[C@H](COP(=O)([O-])OP(=O)(O)OC[C@H]3O[C@@H](n4cnc5c(N)ncnc54)[C@H](O)[C@@H]3O)[C@@H](O)[C@H]2O)c1; marginal effects
2. NC(=O)c1ccc[n+]([C@@H]2O[C@H](COP(=O)([O-])OP(=O)(O)OC[C@H]3O[C@@H](n4cnc5c(N)ncnc54)[C@H](OP(=O)(O)O)[C@@H]3O)[C@@H](O)[C@H]2O)c1; significant inhibition
3. CC(C)(COP(=O)(O)OP(=O)(O)OC[C@H]1O[C@@H](n2cnc3c(N)ncnc32)[C@H](O)[C@@H]1OP(=O)(O)O)[C@@H](O)C(=O)NCCC(=O)NCCS; significant inhibition
4. NC(=O)C1=CN([C@@H]2O[C@H](COP(=O)(O)OP(=O)(O)OC[C@H]3O[C@@H](n4cnc5c(N)ncnc54)[C@H](O)[C@@H]3O)[C@@H](O)[C@H]2O)C=CC1; marginal effects

* * *

As shown below, each of these compounds has a reported Wax synthase Activity, Acyl Group value.
# System: jojoba wax synthase (Simmondsia chinensis, UniProt Q9XGY6)
# Construct: added to a microsomal membrane fraction having wax synthase activity; from tissue; host or cells: jojoba microsomal membrane fraction
# Sequence (Q9XGY6 1-352): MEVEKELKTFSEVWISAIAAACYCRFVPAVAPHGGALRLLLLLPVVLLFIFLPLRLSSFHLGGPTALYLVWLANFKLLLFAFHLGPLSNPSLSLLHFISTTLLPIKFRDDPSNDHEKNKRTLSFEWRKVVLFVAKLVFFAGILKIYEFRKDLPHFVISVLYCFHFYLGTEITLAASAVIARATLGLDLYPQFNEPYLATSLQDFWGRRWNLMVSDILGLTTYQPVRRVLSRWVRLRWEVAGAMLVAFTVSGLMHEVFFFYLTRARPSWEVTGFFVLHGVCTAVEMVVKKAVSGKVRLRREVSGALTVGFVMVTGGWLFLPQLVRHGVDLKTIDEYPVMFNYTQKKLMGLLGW
# Assay text: Wax synthase assay, microsomal membrane fraction
# Assay type: biochemical
# Condition notes: 80 μM acyl-CoA substrate, 100 μM radiolabeled oleyl alcohol
Please state the figure in pmol/min; there is no need to write the unit.

1. CCCCCCCCCCCCCCCCCCCCCC(=O)SCCNC(=O)CCNC(=O)[C@H](O)C(C)(C)COP(=O)(O)OP(=O)(O)OC[C@H]1O[C@@H](n2cnc3c(N)ncnc32)[C@H](O)[C@@H]1OP(=O)(O)O; 46
2. CCCCCCCCCCCCCCCCCCCC(=O)SCCNC(=O)CCNC(=O)[C@H](O)C(C)(C)COP(=O)(O)OP(=O)(O)OC[C@H]1O[C@@H](n2cnc3c(N)ncnc32)[C@H](O)[C@@H]1OP(=O)(O)O; 49
3. CCCCCCCCCCCCCC(=O)SCCNC(=O)CCNC(=O)[C@H](O)C(C)(C)COP(=O)(O)OP(=O)(O)OC[C@H]1O[C@@H](n2cnc3c(N)ncnc32)[C@H](O)[C@@H]1OP(=O)(O)O; 95
4. CCCCC/C=C\C/C=C\CCCCCCCC(=O)SCCNC(=O)CCNC(=O)[C@H](O)C(C)(C)COP(=O)(O)OP(=O)(O)OC[C@H]1O[C@@H](n2cnc3c(N)ncnc32)[C@H](O)[C@@H]1OP(=O)(O)O; 7

Value of measured Wax synthase Activity, Acyl Group for the entry CCCCCCCCCCCCCCCCCC(=O)SCCNC(=O)CCNC(=O)[C@H](O)C(C)(C)COP(=O)(O)OP(=O)(O)OC[C@H]1O[C@@H](n2cnc3c(N)ncnc32)[C@H](O)[C@@H]1OP(=O)(O)O : 51

Measured Wax synthase Activity, Acyl Group of CCCCCCCC/C=C\CCCCCCCCCCCC(=O)SCCNC(=O)CCNC(=O)[C@H](O)C(C)(C)COP(=O)(O)OP(=O)(O)OC[C@H]1O[C@@H](n2cnc3c(N)ncnc32)[C@H](O)[C@@H]1OP(=O)(O)O : 39

Data origin, for the record: patent US5723747A
